- TESTED_TARGET: T1, HBsAg AY serotype (Hepatitis B virus)
- T1 construct: also called HBsAg serotype AY
- METHOD_SUMMARY: SPR Biacore T200, HBsAg particles immobilized, antibody as analyte, 1:1 fit;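 further: Anti-HBsAg antibodies assessed for binding against both major HBsAg serotypes, AY and AD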
MEASURED_PROPERTY: Kd (nM)
Return type: number; implicit unit nM.

Record excerpt, results attached:
BINDER	Kd [nM]
NOV3833 (antibody, human IgG1, lambda, V domains shown, Full human IgG1 (lambda) expressed in CHO cells) VH: EMQVLESGGGLVQPGGSLRLSCAASGFTFHNYAMSWVRQVPGKGLEWVSSISGSGGSTYYADSVKGQFTISRDNSKNTLYLQMNSLRAEDTAVYYCAKSSILSGGHARVYGIDVWGQGTTVTVSS VL: QSALTQPPSVSVAPGQTARITCGGNNIGSQSVHWYQQKPGQAPILVVYDDTDRPSGIPARFSGSSSGSTATLTIGRVEAGDEADYYCQVWDSSSDHVVFGGGTKLTVLS	0.26
NOV3357 (antibody, human IgG1, kappa, V domains shown, Full human IgG1 (kappa) expressed in CHO cells) VH: EVQLLESGGGLVQPGGSLRLSCAASGFTFSPHAMSWVRQAPGKGLEWVSAISDSGGSTHYADSVKGRFTISRDNSKNTLYLQMNSLRAEDTAVYYCARDDDGWSGYDYWFDYWGQGTLVTVSS VL: DIQMTQSPSSLSASVGDRVTITCRASQSISPYLNWYQQKPGKAPKLLIYAADSLQSGVPSRFSGSGSGTDFTLTISSLQPEDFATYYCQQSYKIPLTFGQGTKVEIKR	0.11
NOV3837 (antibody, human IgG1, kappa, V domains shown, Full human IgG1 (kappa) expressed in CHO cells) VH: QVQLQESGGRLVRPGGSLRLSCAASGFIFTDYYMTWIRQAPGKGPEWIAFITSGGETTYYADSVKGRFTISRDNAKKSLFLQMYSLRADDTAVYYCVRAHFDGYQYDTRGDFTYYFDNWGLGTLVSVSS VL: EIVMTQSPATLSVSPGERVTLSCRASQSVSSSLAWYQQKPGRAPRLLIYGASTRATGVPARFSGGGSGTDFTLTISSLQSEDFAVYYCHQYINWPPGDTFGQGTRLDIKR	0.75
NOV3841 (antibody, human IgG1, lambda, V domains shown, Full human IgG1 (lambda) expressed in CHO cells) VH: EVQLLESGGGLVQPGGSRRLSCAASGFTFSYYGMNWVRQAPGKGLEWVSGITQSGSITYYADTVKGRFSISRDNSKNTLFLQMNSLRAEDTAVYYCAKVGVRSSSGMWDLDYWGQGTLVTVSS VL: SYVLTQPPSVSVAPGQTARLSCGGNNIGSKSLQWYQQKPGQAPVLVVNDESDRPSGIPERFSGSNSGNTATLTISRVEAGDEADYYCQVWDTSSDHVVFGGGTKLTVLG	0.61
NOV3838 (antibody, human IgG1, kappa, V domains shown, Full human IgG1 (kappa) expressed in CHO cells) VH: QVQLQESGGRLVRPGGSLRLSCAASGFIFTDYYMTWIRQAPGKGPEWIAFITSGGETTYYADSVKGRFTISRDNAKKSLFLQMYSLRADDTAVYYCVRAHFDLYQYDTRGDFTYYFDNWGLGTLVSVSS VL: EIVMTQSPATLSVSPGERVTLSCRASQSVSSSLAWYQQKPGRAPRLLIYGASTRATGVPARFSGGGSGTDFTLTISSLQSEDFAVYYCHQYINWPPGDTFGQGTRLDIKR	0.6

The binder listed as NOV3839 (antibody, human IgG1, kappa, V domains shown, Full human IgG1 (kappa) expressed in CHO cells) VH: QVQLQESGGRLVRPGGSLRLSCAASGFIFTDYYMTWIRQAPGKGPEWIAFITSGGETTYYADSVKGRFTISRDNAKKSLFLQMYSLRADDTAVYYCVRAHFDIYQYDTRGDFTYYFDNWGLGTLVSVSS VL: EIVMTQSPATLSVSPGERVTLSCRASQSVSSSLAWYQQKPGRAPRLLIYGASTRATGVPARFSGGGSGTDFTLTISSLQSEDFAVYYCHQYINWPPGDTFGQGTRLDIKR has a reported Kd of 2.4

// Kd lookup, binder = NOV3540 (antibody, human IgG1, kappa, V domains shown, Full human IgG1 (kappa) expressed in CHO cells) VH: EVQLLESGGGLVQPGGSLRLSCAASGFTFSPHAMSWVRQAPGKGLEWVSAISDSGGSTHYADSVKGRFTISRDNSKNTLYLQMNSLRAEDTAVYYCARDDDAWSGYDYWFDYWGQGTLVTVSS VL: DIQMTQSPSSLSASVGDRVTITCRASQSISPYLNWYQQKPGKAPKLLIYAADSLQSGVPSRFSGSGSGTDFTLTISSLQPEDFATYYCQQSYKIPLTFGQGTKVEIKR , result: 0.25
